molecular target: DNA (cytosine-5)-methyltransferase 3A (Homo sapiens); experiment: Inhibition of human DNMT3A catalytic domain using AdoMet assessed as reduction of methylation in 5'-biotin/3' 6-carboxyfluorescein labeled DNA duplex at CpG site at 32 uM after 1 hr by fluorescence assay relative to control
Sequence (Q9Y6K1 whole entry, looked up, the tested form may be a part): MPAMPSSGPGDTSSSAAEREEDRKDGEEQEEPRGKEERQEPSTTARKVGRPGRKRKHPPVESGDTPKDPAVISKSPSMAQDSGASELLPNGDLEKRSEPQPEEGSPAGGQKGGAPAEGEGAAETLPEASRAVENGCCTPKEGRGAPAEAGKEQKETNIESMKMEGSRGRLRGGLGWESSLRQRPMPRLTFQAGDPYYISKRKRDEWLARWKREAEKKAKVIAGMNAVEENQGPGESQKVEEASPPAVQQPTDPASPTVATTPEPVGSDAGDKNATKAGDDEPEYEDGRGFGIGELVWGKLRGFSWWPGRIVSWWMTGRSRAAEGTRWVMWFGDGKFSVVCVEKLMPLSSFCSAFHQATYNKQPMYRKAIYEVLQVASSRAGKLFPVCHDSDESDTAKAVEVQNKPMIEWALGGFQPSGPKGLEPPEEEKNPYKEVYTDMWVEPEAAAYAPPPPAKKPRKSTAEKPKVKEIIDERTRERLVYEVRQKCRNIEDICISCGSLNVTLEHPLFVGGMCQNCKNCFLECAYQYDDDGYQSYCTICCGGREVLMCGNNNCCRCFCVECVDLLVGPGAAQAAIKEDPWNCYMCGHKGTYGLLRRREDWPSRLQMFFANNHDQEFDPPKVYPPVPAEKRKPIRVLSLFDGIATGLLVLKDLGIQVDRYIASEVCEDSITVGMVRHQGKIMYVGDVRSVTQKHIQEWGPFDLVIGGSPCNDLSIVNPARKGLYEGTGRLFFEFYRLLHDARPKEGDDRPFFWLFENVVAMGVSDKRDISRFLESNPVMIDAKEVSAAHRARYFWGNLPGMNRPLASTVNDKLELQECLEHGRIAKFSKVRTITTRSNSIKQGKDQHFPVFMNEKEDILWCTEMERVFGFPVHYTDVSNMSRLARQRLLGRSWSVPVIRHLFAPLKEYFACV
Parameter inhibition: see the listing below.
measured-metric: inhibition (%)

Clc1ccccc1CCNc1ncnc2cc(OCC3CCN(CCNc4ccnc5ccccc45)CC3)ccc12 | 100
c1ccc2c(NCCNc3ncnc4cc(OCC5CCN(CCNc6ccnc7ccccc67)CC5)ccc34)cccc2c1 | 90
c1ccc(CCCNc2ncnc3cc(OCCN4CCN(CCNc5ccnc6ccccc56)CC4)ccc23)cc1 | 67

---

molecular target: DNA (cytosine-5)-methyltransferase 1 (Homo sapiens, UniProt P26358); assay: Inhibition of full length His-tagged human DNMT1 using SAM/[methyl-3H]SAM assessed as reduction of methylation in biotinylated hemimethylated DNA duplex at 32 uM after 1 hr by scintillation counting method relative to control
Sequence (P26358 whole entry): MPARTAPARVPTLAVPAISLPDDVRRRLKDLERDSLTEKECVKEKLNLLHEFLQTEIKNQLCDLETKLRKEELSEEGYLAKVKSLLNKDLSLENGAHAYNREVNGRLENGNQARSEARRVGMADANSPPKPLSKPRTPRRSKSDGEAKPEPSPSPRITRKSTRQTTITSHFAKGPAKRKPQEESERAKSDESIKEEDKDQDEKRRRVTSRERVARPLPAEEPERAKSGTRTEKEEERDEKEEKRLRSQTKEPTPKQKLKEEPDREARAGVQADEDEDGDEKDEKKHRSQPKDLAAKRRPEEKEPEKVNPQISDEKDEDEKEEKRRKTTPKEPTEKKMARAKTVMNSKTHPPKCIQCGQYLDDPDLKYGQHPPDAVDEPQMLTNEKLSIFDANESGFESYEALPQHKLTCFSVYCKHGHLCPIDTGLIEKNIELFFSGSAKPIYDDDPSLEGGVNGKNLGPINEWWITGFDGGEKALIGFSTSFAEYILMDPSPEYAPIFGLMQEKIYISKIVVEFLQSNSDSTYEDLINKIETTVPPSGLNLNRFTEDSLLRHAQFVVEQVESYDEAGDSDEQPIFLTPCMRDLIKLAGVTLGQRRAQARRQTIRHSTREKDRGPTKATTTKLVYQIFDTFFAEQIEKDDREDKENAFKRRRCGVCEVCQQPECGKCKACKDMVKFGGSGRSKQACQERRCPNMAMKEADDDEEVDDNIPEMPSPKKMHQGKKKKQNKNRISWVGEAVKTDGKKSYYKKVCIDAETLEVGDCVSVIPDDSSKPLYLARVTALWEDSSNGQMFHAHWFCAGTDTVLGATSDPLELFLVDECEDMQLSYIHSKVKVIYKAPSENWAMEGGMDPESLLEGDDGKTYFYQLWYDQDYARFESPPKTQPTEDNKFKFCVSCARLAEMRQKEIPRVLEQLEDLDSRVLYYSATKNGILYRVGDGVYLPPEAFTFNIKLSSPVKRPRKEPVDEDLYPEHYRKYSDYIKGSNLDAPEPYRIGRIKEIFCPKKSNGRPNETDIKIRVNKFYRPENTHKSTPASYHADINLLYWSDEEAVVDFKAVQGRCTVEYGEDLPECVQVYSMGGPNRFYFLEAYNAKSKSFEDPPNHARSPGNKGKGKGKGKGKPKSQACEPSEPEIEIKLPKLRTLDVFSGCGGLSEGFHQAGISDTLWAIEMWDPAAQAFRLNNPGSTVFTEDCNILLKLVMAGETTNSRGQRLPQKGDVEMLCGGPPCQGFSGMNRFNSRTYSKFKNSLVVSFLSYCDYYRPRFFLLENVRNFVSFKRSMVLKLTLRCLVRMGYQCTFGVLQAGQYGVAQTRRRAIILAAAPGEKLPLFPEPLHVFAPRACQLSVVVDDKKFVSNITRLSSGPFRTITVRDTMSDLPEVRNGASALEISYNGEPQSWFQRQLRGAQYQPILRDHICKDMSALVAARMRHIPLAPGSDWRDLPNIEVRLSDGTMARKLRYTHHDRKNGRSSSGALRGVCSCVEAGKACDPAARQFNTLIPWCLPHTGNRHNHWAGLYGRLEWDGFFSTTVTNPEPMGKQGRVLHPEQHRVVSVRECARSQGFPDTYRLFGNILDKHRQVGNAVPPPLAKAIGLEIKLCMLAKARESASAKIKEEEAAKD
measured-metric: inhibition (%)

c1ccc(CCCNc2ncnc3cc(OCC4CCN(CCNc5cccc6cnccc56)CC4)ccc23)cc1 | 0
O=[N+]([O-])c1ccc(CCNc2ncnc3cc(OCC4CCN(CCNc5ccnc6ccccc56)CC4)ccc23)cc1 | 0
Cc1cc(NCCN2CCC(COc3ccc4c(NCCCc5ccccc5)ncnc4c3)CC2)c2cccc(C)c2n1 | 33
Nc1ncnc2cc(OCC3CCN(CCNc4ccnc5ccccc45)CC3)ccc12 | 0
Oc1cc2nccc(NCCN3CCC(COc4ccc5c(NCCCc6ccccc6)ncnc5c4)CC3)c2cc1O | 36
c1ccc(CCCNc2ncnc3cc(OCC4CCN(c5ccnc6ccccc56)CC4)ccc23)cc1 | 0
COc1cc2nccc(NCCN3CCC(COc4ccc5c(NCCCc6ccccc6)ncnc5c4)CC3)c2cc1OC | 57
c1ccc(CCCNc2ncnc3cc(OCC4CCN(CCNc5cccc6ccccc56)CC4)ccc23)cc1 | 0
Clc1cccc(CCNc2ncnc3cc(OCC4CCN(CCNc5ccnc6ccccc56)CC4)ccc23)c1 | 0
O=c1c2ccc(OCC3CCN(CCNc4ccnc5ccccc45)CC3)cc2ncn1CCCc1ccccc1 | 0
c1ccc(CNc2ncnc3cc(OCC4CCN(CCNc5ccnc6ccccc56)CC4)ccc23)cc1 | 22
Clc1ccc(CCNc2ncnc3cc(OCC4CCN(CCNc5ccnc6ccccc56)CC4)ccc23)cc1 | 75
FC(F)(F)c1ccc2c(NCCN3CCC(COc4ccc5c(NCCCc6ccccc6)ncnc5c4)CC3)ccnc2c1 | 0
c1ccc(CCCNc2ncnc3cc(OCCN4CCN(CCNc5ccnc6ccccc56)CC4)ccc23)cc1 | 0
c1ccc(CCCNc2ncnc3cc(OCC4CCN(CCNc5cncc6ccccc56)CC4)ccc23)cc1 | 0
c1ccc(CCNc2ncnc3cc(OCC4CCN(CCNc5ccnc6ccccc56)CC4)ccc23)cc1 | 38
CCCNc1ncnc2cc(OCC3CCN(CCNc4ccnc5ccccc45)CC3)ccc12 | 0
Nc1ccc(CCNc2ncnc3cc(OCC4CCN(CCNc5ccnc6ccccc56)CC4)ccc23)cc1 | 59
Oc1ccc2c(NCCN3CCC(COc4ccc5c(NCCCc6ccccc6)ncnc5c4)CC3)ccnc2c1 | 0
c1ccc(-c2ccc(CNc3ncnc4cc(OCC5CCN(CCNc6ccnc7ccccc67)CC5)ccc34)cc2)cc1 | 24
CC(C)c1ccc(CCNc2ncnc3cc(OCC4CCN(CCNc5ccnc6ccccc56)CC4)ccc23)cc1 | 0
c1ccc(CCCNc2ncnc3cc(OCC4CCN(CCNc5cnc6ccccc6c5)CC4)ccc23)cc1 | 0
c1ccc(CCCNc2ncnc3cc(OCC4CCN(CCNc5ccc6ccccc6c5)CC4)ccc23)cc1 | 0
COc1ccc2c(NCCN3CCC(COc4ccc5c(NCCCc6ccccc6)ncnc5c4)CC3)ccnc2c1 | 35
c1ccc(CCCNc2ncnc3cc(OCCCNCCNc4ccnc5ccccc45)ccc23)cc1 | 0
COCn1ccc(NCCN2CCC(COc3ccc4c(NCCCc5ccccc5)ncnc4c3)CC2)nc1=O | 0
